test: Octanol-phosphate buffered saline distribution coefficient, log D of compound at pH 7.4 at 1 mg shake for 30 mins and measured after 48 hrs by HPLC analysis; assay type: physicochemical
Catalogue of logD at 30 min values
Just the number, please, no unit attached.

Supply recorded logD at 30 min for CCCC(CCC)C(=O)N(C)/N=N/c1ccc(C(C)=O)cc1 here.
4.56

Supply recorded logD at 30 min for CCCC(CCC)C(=O)N(C)/N=N/c1ccc(C(N)=O)cc1 here.
3.68

----------
assay: Stability of the compound in PBS buffer at pH 7.4 assessed as half life by HPLC analysis; type: physicochemical
Readout Type: half-life (h)
Reply numerically in h, unit not repeated.

| Molecule | half-life (h) |
| --- | --- |
| CCCC(CCC)C(=O)N(C)/N=N/c1ccc(C(=O)OC)cc1 | 31.4 |
| Cn1nnc2c(C(N)=O)ncn2c1=O [TEMOZOLOMIDE] | 2 |
| CCCC(CCC)C(=O)N(C)/N=N/c1ccc(C)cc1 | 31.3 |
| CCCC(CCC)C(=O)N(C)/N=N/c1ccc(Br)cc1 | 30.4 |

Supply recorded half-life for CCCC(CCC)C(=O)N(C)/N=N/c1ccc(Cl)cc1 here.
27.3

Supply recorded half-life for CCCC(CCC)C(=O)N(C)/N=N/c1ccc(C(=O)OCC)cc1 here.
34.1

// provenance: ChEMBL document CHEMBL4393663
